TESTED SYSTEM: human 5-HT4(a) (Homo sapiens)
ASSAY EXPLANATION: Evaluation of agonistic activity in CHO-K1 cells expressing human 5-HT4(a) (GeneBlAzer HTR4-CRE-bla CHO-K1, beta-lactamase reporter)
MEASUREMENT CONDITIONS: CHO-K1 cells stably expressing human 5-HT4(a)
ENDPOINT LABEL: EC50
Note to self: number, then unit, no commentary.

CCCc1cc(N2CCC[C@H]2COC)nc(Nc2ccc(N)c([N+](=O)[O-])c2)n1    0.0097 nM
CCCc1cc(N2CC[C@H](NC(=O)C(C)C)C2)nc(Nc2cccc(C#N)c2)n1    0.205 nM

Now take the following compound into account.
Input line: Send back human 5-HT4(a) (Homo sapiens) EC50 of CCCc1cc(N2CCC[C@H]2CO)nc(Nc2ccc(C)c(Cl)c2)n1 only.
Output line: 0.16 nM

====

TESTED SYSTEM: human 5-HT4(a) (Homo sapiens)
ASSAY EXPLANATION: Evaluation of agonistic activity in CHO-K1 cells expressing human 5-HT4(a) (GeneBlAzer HTR4-CRE-bla CHO-K1, beta-lactamase reporter)
MEASUREMENT CONDITIONS: CHO-K1 cells stably expressing human 5-HT4(a)
ENDPOINT LABEL: pEC50
Recall that pEC50 is obtained by taking minus log10 of the concentration measured in molar.

Some molecules with known pEC50 results, for comparison:
CCCCc1cc(N2CC[C@H](NC)C2)nc(Nc2ccc(Cl)c(N)c2)n1 [Example 457]    11.52
CCCCc1cc(N2CC[C@H](NCC)C2)nc(Nc2ccc(C)c([N+](=O)[O-])c2)n1 [Example 462]    11.59
CCCc1cc(N2CC[C@H](CN(CC)CC)C2)nc(Nc2cccc(C#N)c2)n1 [Example 434]    9.95
CCCc1cc(N2CCC[C@H]2CO)nc(Nc2ccc(F)c(N)c2)n1 [Example 400]    10.48

Input line: Using known records, supply pEC50 for CCCc1cc(N2CCC(NC(C)=O)C2)nc(Nc2cccc(SC)c2)n1 (centres unmarked) [Example 305]
Output line: 9.74

====

Below, each entry is listed with its recorded pEC50.
TESTED SYSTEM: human 5-HT4(a) (Homo sapiens, UniProt Q13639)
Sequence (Q13639 1-387 isoform Q13639-2): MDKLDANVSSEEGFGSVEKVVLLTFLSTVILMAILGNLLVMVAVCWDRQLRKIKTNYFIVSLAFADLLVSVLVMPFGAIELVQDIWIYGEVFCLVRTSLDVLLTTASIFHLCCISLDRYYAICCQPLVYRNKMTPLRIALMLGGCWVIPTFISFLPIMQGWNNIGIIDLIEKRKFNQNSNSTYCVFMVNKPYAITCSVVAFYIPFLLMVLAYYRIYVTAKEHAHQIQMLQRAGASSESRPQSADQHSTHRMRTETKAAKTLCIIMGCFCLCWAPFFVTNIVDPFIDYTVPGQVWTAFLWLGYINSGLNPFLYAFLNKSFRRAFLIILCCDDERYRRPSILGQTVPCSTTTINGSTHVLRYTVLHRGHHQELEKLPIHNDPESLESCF
ASSAY EXPLANATION: Evaluation of agonistic activity in CHO-K1 cells expressing human 5-HT4(a) (GeneBlAzer HTR4-CRE-bla CHO-K1, beta-lactamase reporter)
MEASUREMENT CONDITIONS: CHO-K1 cells stably expressing human 5-HT4(a)
Method: Test Example 1: Evaluation of Agonistic Activity in CHO-K1 Cells Expressing Human 5-HT4(a) As CHO-K1 cells stably expressing human 5-HT4(a), we used the GeneBlAzer HTR4-CRE-bla CHO-K1 cells (Invitrogen Corp.). […] Agonistic activities on 5-HT4 receptor were evaluated, on the basis of fluorescence values of the cleavage-products by beta-lactamase. […] Data were analyzed on the basis of the ratio of fluorescence intensities of each well at the respective wavelengths. […]
Where a name gives a salt, the structure may show the parent alone.
Quick note: pEC50 values are minus log10 of concentrations in mol/L.

Answered cases to consult:
CCCc1cc(N2CC[C@H](NCc3ccc[nH]3)C2)nc(Nc2cccc(C#N)c2)n1    11.10
CCCc1cc(N2CC[C@H](NCC3CCCCC3)C2)nc(Nc2cccc(C#N)c2)n1    10.41
CCCc1cc(N2CC[C@H](N)C2)nc(Nc2cccc([N+](=O)[O-])c2)n1 [Example 350, dihydrochloride]    10.92
CCCc1cc(N2CC[C@H](N)C2)nc(Nc2ccc(C)c([N+](=O)[O-])c2)n1 [Example 351, dihydrochloride]    11.46
CCCc1cc(N2CC[C@H](NC(C)=O)C2)nc(Nc2ccc(C)c([N+](=O)[O-])c2)n1    11.74
CCCc1cc(N2CCC[C@H]2C)nc(Nc2ccc3c(c2)N(C(C)=O)CC3)n1    9.74
CCCCc1cc(N2CC[C@H](NC)C2)nc(Nc2ccc(F)c(C(F)(F)F)c2)n1    10.85

Here is another molecule to look at.
Input line: Identify measured pEC50 associated with CCCc1cc(N2CC[C@H](NCC3CC3)C2)nc(Nc2ccc(F)c(C(F)(F)F)c2)n1
Output line: 11.29

====

TESTED SYSTEM: UniProt:Q13639
ASSAY EXPLANATION: Evaluation of agonistic activity in CHO-K1 cells expressing human 5-HT4(a) (GeneBlAzer HTR4-CRE-bla CHO-K1, beta-lactamase reporter)
MEASUREMENT CONDITIONS: CHO-K1 cells stably expressing human 5-HT4(a)
Structures can show the parent of a compound that is named as a salt.
Checkbox rule: EC50 lower than 0.02 nM = 1 (yes); EC50 not lower than 0.02 nM = 0 (no).

Answered examples (3):
CCCc1cc(N2CC[C@H](NC(C)=O)C2)nc(Nc2ccc(N)c([N+](=O)[O-])c2)n1 [Example 286, hydrochloride]    1 (yes)
CCCc1cc(N2CCC[C@H]2COC)nc(Nc2ccc(F)c(N)c2)n1    0 (no)
CCCCc1cc(N2CC[C@H](NC(C)=O)C2)nc(Nc2ccc(C)c(C#N)c2)n1 [Example 492, hydrochloride]    1 (yes)

Input line: Please indicate whether the reported EC50 of CCCc1cc(N2CC[C@H](NCCC(C)C)C2)nc(Nc2cccc(C#N)c2)n1 is strictly below 0.02 nM.
Output line: 1 (yes)

Input line: In the record for CCCc1cc(N2CC[C@H](NCc3cccnc3)C2)nc(Nc2cccc(C#N)c2)n1 , is EC50 less than 0.02 nM?
Output line: 0 (no)

Input line: Given the entry CCCc1cc(N2CCC[C@H]2CO)nc(Nc2ccc(F)c(C#N)c2)n1 , would its reported EC50 be below 0.02 nM?
Output line: 0 (no)

Input line: Criterion: EC50 strictly below 0.02 nM. Is it met by CCCc1cc(N2CCC(NC(C)=O)C2)nc(Nc2ccc(Cl)c([N+](=O)[O-])c2)n1 (centres unmarked) ?
Output line: 0 (no)

Input line: Say whether its EC50 is strictly beneath 0.02 nM. Entry: CCCc1cc(N2CCC[C@H]2CNC)nc(Nc2cccc(C#N)c2)n1
Output line: 0 (no)

Input line: Does the reported EC50 of the following compound sit strictly below 0.02 nM? CCCCc1cc(N2CC[C@H](NCC)C2)nc(Nc2ccc(C)c(C#N)c2)n1
Output line: 1 (yes)

====

compounds and their reported EC50
TESTED SYSTEM: human 5-HT4(a) (Homo sapiens, UniProt Q13639)
ASSAY EXPLANATION: Evaluation of agonistic activity in CHO-K1 cells expressing human 5-HT4(a) (GeneBlAzer HTR4-CRE-bla CHO-K1, beta-lactamase reporter)
MEASUREMENT CONDITIONS: CHO-K1 cells stably expressing human 5-HT4(a)
Quick note: number first, unit second.

Below are worked cases with known answers.
CCCCc1cc(N2CC[C@H](NC)C2)nc(Nc2ccc(N)c(C#N)c2)n1    0.0023 nM
CCCc1cc(N2CC[C@H](NC3CCCC3)C2)nc(Nc2cccc(C#N)c2)n1    0.0066 nM
CCCc1cc(N2CC[C@H](NCCCc3ccccc3)C2)nc(Nc2cccc(C#N)c2)n1    0.08 nM

Input line: For the compound CCCc1cc(N2CCC[C@H]2CO)nc(Nc2ccc(C)c([N+](=O)[O-])c2)n1 , give its measured EC50 value.
Output line: 0.016 nM

====

TESTED SYSTEM: human 5-HT4(a) (Homo sapiens, UniProt Q13639)
ASSAY EXPLANATION: Evaluation of agonistic activity in CHO-K1 cells expressing human 5-HT4(a) (GeneBlAzer HTR4-CRE-bla CHO-K1, beta-lactamase reporter)
MEASUREMENT CONDITIONS: CHO-K1 cells stably expressing human 5-HT4(a)
Could you mark each record True if its EC50 falls strictly under 0.05 nM, and False if it equals or exceeds it?

These recorded examples may help you get a feel for the data.
CCCc1cc(N2CCCC2CO)nc(Nc2ccc3cc[nH]c3c2)n1 (centres unmarked) [Example 187]    True
CCCNC[C@@H]1CCCN1c1cc(CCC)nc(Nc2cccc(C#N)c2)n1 [Example 406]    False
CCCc1cc(N2CC[C@H](NC(C)=O)C2)nc(Nc2cccc([N+](=O)[O-])c2)n1 [Example 247]    True

# next molecule below
Input line: Strictly below 0.05 nM in EC50? CCCc1cc(N2CC[C@H](NC(=O)CCC(C)=O)C2)nc(Nc2cccc(C#N)c2)n1 [Example 156]
Output line: False

====

Recorded measurements of pEC50, one per entry
TESTED SYSTEM: human 5-HT4(a) (Homo sapiens, UniProt Q13639)
ASSAY EXPLANATION: Evaluation of agonistic activity in CHO-K1 cells expressing human 5-HT4(a) (GeneBlAzer HTR4-CRE-bla CHO-K1, beta-lactamase reporter)
MEASUREMENT CONDITIONS: CHO-K1 cells stably expressing human 5-HT4(a)
Worth noting: pEC50 values are minus log10 of concentrations stated in mol/L.

See these solved cases before continuing.
CCCc1cc(N2CC[C@H](NCC3CC3)C2)nc(Nc2ccc(C)c([N+](=O)[O-])c2)n1    11.57
CCCc1cc(N2CCC[C@H]2C)nc(Nc2ccc(N)c(C(F)(F)F)c2)n1    10.57
CCCN[C@H]1CCN(c2cc(CCC)nc(Nc3cccc(C#N)c3)n2)C1    11.52

From here, focus on the item given below.
Input line: Provide pEC50, system human 5-HT4(a) (Homo sapiens, UniProt Q13639), entry CCCc1cc(N2CC[C@H](NC(=O)CCc3ccc(O)cc3)C2)nc(Nc2cccc(C#N)c2)n1
Output line: 9.38
